biological target: Mitogen-activated protein kinase 10 (Homo sapiens); assay: Dose response biochemical screening assay for inhibitors of c-Jun N-Terminal Kinase 3 (JNK3). [Related pubchem assays: 746 ]
Sequence (P53779 whole entry): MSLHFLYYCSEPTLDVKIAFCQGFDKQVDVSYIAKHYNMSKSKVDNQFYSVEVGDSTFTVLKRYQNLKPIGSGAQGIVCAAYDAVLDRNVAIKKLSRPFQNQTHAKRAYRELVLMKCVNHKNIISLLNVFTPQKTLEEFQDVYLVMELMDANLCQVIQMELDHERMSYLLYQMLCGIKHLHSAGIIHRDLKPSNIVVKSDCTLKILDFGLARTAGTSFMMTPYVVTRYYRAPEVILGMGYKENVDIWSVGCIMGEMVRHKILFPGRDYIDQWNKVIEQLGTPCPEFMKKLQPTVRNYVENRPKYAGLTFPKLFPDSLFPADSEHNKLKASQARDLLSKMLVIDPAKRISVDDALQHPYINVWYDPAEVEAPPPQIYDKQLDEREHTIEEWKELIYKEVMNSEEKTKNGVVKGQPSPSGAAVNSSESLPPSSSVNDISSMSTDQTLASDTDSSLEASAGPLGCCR
# IC50 per record follows

# count of solved cases: 3
In [3]: df
Out[3]:
                          molecule_smiles       recorded_result
0             COc1ccc2c(Cl)c(C(N)=O)sc2c1  68.3 µM (not active)
1              Cn1ncc2c(NCc3ccccc3)ncnc21  > 31 µM (not active)
2  COc1ccc(-c2cnc(N)nc2-c2ccc(OC)cc2O)cc1  19.9 µM (not active)

We now examine a further compound.
[ask] Complete the entry with IC50 for "COc1ccc(COC(=O)c2[nH]nc3ccccc23)cc1F"
[reply] 11.4 µM (not active)

Where do these numbers come from? They come from ChEMBL document CHEMBL1201862.
